# IC50 per record follows
Target: HCN3 (Homo sapiens, UniProt Q9P1Z3)
Sequence (Q9P1Z3 whole entry): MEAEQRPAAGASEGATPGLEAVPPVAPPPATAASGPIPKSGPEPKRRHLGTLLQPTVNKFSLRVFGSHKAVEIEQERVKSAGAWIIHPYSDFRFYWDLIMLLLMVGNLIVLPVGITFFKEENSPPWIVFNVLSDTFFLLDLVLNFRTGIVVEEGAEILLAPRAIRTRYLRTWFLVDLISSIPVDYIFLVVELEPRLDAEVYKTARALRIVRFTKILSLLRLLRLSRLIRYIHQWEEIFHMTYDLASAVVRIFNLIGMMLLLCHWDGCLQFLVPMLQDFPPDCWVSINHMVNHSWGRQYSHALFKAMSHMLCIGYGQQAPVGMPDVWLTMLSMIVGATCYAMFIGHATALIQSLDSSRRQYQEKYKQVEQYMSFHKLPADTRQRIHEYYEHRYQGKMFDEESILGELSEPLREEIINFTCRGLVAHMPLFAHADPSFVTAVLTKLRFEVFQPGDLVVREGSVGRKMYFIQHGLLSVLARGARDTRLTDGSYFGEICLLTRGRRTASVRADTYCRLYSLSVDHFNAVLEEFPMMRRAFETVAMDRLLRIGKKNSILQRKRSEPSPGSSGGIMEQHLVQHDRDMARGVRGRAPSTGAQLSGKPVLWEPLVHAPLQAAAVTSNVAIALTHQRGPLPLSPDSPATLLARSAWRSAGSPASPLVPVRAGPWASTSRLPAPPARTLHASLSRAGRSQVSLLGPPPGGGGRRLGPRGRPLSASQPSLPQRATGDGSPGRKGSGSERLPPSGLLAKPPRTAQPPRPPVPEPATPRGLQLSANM
Test: HCN3 automated patch clamp current inhibition assay (Ionworks Barracuda)
Conditions: HEK-293 cells stably expressing HCN3; current inhibition during a hyperpolarizing pulse of -100 mV
Procedure: In vitro, high-throughput cellular electrophysiology was employed to detect voltage- and use-dependence of compounds in single concentration screening and IC50 determination for library and medicinal chemistry profiling compounds in 384 well plates. […] Currents through activated channels were measured directly by APC by employing hyperpolarizing voltage steps. […] Selectivity was assessed against HCN2, HCN3, and HCN4 overexpressing cell lines using similar methods. […]

For orientation, consider the following solved cases.
[
  {
    "Cpd Smiles": "Cc1ccc(-n2c(C(N)=O)nc(C#Cc3ccccc3)c2C)cc1",
    "Measured Property": "IC50",
    "Measured": "> 40 µM"
  },
  {
    "Cpd Smiles": "NC(=O)c1nc(C#Cc2ccnc(Cl)c2)cn1-c1ccc(F)cc1",
    "Measured Property": "IC50",
    "Measured": "> 40 µM"
  },
  {
    "Cpd Smiles": "Cc1ccc(-c2c(C(N)=O)nc(C#Cc3ccnc(Cl)c3C)n2C)cn1",
    "Measured Property": "IC50",
    "Measured": "> 40 µM"
  },
  {
    "Cpd Smiles": "Cc1ccc(-n2c(C(N)=O)nc(C#Cc3ccnc(Cl)c3)c2C)cn1",
    "Measured Property": "IC50",
    "Measured": "> 40 µM"
  },
  {
    "Cpd Smiles": "Cc1ccc(-n2c(C(N)=O)nc(C#Cc3ccncc3)c2C)cn1",
    "Measured Property": "IC50",
    "Measured": "> 40 µM"
  },
  {
    "Cpd Smiles": "Cc1ccc(-n2c(C(N)=O)nc(C#Cc3csc(Cl)c3)c2C)cn1",
    "Measured Property": "IC50",
    "Measured": "25.7 µM"
  },
  {
    "Cpd Smiles": "Cc1ccc(-n2c(C(N)=O)nc(C#Cc3cccc(Cl)c3)c2C)cn1",
    "Measured Property": "IC50",
    "Measured": "32.8 µM"
  },
  {
    "Cpd Smiles": "Cc1c(C#Cc2nc(C(N)=O)n(-c3ccc(Cl)nc3)c2C)ccnc1Cl",
    "Measured Property": "IC50",
    "Measured": "> 40 µM"
  }
]

Could you now consider this next compound?
// query IC50 value for entry `Cc1ccc(-n2c(C(N)=O)nc(C#Cc3ccnc(Cl)c3)c2C)cc1` > 40 µM
